# experimentalTarget: Human PDGF-BB (human, UniProt P01127 82-190)
# Sequence (P01127 82-190 limits assumed): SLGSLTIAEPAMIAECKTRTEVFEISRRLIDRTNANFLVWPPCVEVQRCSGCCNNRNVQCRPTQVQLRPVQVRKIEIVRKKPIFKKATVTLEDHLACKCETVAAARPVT
# procedureSummary: cell-based or functional assay
Use Yes when the recorded hPDGF-BB NIH-3T3 Proliferation IC50 is no lower than 0.04 nM; use No when it is lower.

• CL-33731-IgG (antibody, V domains shown) VH: EVTLRESGPALVKPTQTLTLTCTFSGFSLSTYGMGVGWIRQPPGKALEWLANIWWDDDKYYNPSLKNRLTISKDTSKNQVVLTMTNMDPVDTATYYCARIESIPTSYSFDYWGQGTMVTVSS VL: EIVLTQSPGTLSLSPGERATLSCERSSGSIWQSYVSWYQQKPGQAPRLVIYADDQRATGIPDRFSGSGSGTDFTLTISRLEPEDFAVYYCQSYDIDIDVVFGGGTKVEIK = No
• CL-33811-IgG (antibody, V domains shown) VH: EVTLRESGPALVKPTQTLTLTCTFSGFSLSTYGMGVGWIRQPPGKALEWLANIWWDDDKYYNPSLKNRLTISKDTSKNQVVLTMTNMDPVDTATYYCARIESSWTTYSFDYWGQGTMVTVSS VL: EIVLTQSPGTLSLSPGERATLSCERSSGSIWHSYVSWYQQKPGQAPRLLIYSDDQRATGIPDRFSGSGSGTDFTLTISRLEPEDFAVYYCQSYGIYIDVVFGGGTKVEIK = No
• CL-33701-IgG (antibody, V domains shown) VH: EVTLRESGPALVKPTQTLTLTCTFSGFSLSTYGMGVGWIRQPPGKALEWLANIWWDDDKYYNPSLKNRLTISKDTSKNQVVLTMTNMDPVDTATYYCARIESLGTSYSFDYWGQGTMVTVSS VL: EIVLTQSPGTLSLSPGERATLSCERSSGDIWDYYVSWYQQKPGQAPRLVIYADDQRPSGIPDRFSGSGSGTDFTLTISRLEPEDFAVYYCQSYDLFIDVTFGGGTKVEIK = Yes

# ---- query binder ----
# input Assess whether reported hPDGF-BB NIH-3T3 Proliferation IC50 for CL-33683-IgG (antibody, V domains shown) VH: EVTLRESGPALVKPTQTLTLTCTFSGFSLSTYGMGVGWIRQPPGKALEWLANIWWDDDKYYNPSLKNRLTISKDTSKNQVVLTMTNMDPVDTATYYCARIETIGPKYSFDYWGQGTMVTVSS VL: EIVLTQSPGTLSLSPGERATLSCRASSGSIWYSFVSWYQQKPGQAPRLLIYADDQRASGIPDRFSGSGSGTDFTLTISRLEPEDFAVYYCQSYGINIDVVFGGGTKVEIK sits at 0.04 nM or higher.
# output No

Hello, the source for this data is patent US20170015742A1, in case you need it.
